assay: physchem; conditions: 25 °C, pH 9.461, aqueous buffer
Measured Metric: solubility (µg/mL)
Write down the numeric answer in µg/mL and omit the unit.

IN: Query: solubility; subject: C=C(C)[C@@H]1CC[C@]2(C(=O)O)CC[C@]3(C)[C@H](CC[C@@H]4[C@@]5(C)CC[C@H](OC(=O)CC(C)(C)C(=O)O)C(C)(C)[C@@H]5CC[C@]43C)[C@@H]12 [DSB-(NmG)2]
OUT: 7540

* * *

experiment: Equilibrium solubility in selected solvents; conditions: water, thermodynamic from solid, Equilibrium solubility, Deionized Water; equilibration 4 days
Measured Metric: solubility thermodynamic at 4 days

IN: Query: solubility thermodynamic at 4 days; subject: C=C(C)[C@@H]1CC[C@]2(C(=O)O)CC[C@]3(C)[C@H](CC[C@@H]4[C@@]5(C)CC[C@H](OC(=O)CC(C)(C)C(=O)O)C(C)(C)[C@@H]5CC[C@]43C)[C@@H]12 [DSB-(NmG)2]
OUT: > 7000 µg/mL

* * *

experiment: physchem; settings: 25 °C, pH 10.691, aqueous buffer
Measured Metric: solubility (µg/mL)
Write down the numeric answer in µg/mL and omit the unit.

IN: Query: solubility; subject: C=C(C)[C@@H]1CC[C@]2(C(=O)O)CC[C@]3(C)[C@H](CC[C@@H]4[C@@]5(C)CC[C@H](OC(=O)CC(C)(C)C(=O)O)C(C)(C)[C@@H]5CC[C@]43C)[C@@H]12
OUT: 7460

* * *

test: Equilibrium solubility in selected solvents; conditions: saline or isotonic, thermodynamic from solid, Equilibrium solubility, PSS + 1% DMSO; equilibration 3 days
Measured Metric: solubility thermodynamic at 3 days (µg/mL)
Write down the numeric answer in µg/mL and omit the unit.

IN: Query: solubility thermodynamic at 3 days; subject: C=C(C)[C@@H]1CC[C@]2(C(=O)O)CC[C@]3(C)[C@H](CC[C@@H]4[C@@]5(C)CC[C@H](OC(=O)CC(C)(C)C(=O)O)C(C)(C)[C@@H]5CC[C@]43C)[C@@H]12 [DSB-(NmG)2]
OUT: 108

* * *

experiment: physchem; conditions: water, thermodynamic from solid, Equilibrium solubility
Measured Metric: solubility thermodynamic at 3 days (µg/mL)
Write down the numeric answer in µg/mL and omit the unit.

IN: Query: solubility thermodynamic at 3 days; subject: C=C(C)[C@H]1CC[C@]2(C(=O)O)CC[C@@]3(C)[C@H](CC[C@H]4[C@@]5(C)CC[C@H](OC(=O)CC(C)(C)C(=O)O)C(C)(C)[C@H]5CC[C@]43C)[C@H]12
OUT: 35.1

* * *

assay: Water solubility (summary statement); format: physicochemical
Measured Metric: solubility

IN: Query: solubility; subject: C=C(C)[C@H]1CC[C@]2(C(=O)O)CC[C@@]3(C)[C@H](CC[C@H]4[C@@]5(C)CC[C@H](OC(=O)CC(C)(C)C(=O)O)C(C)(C)[C@H]5CC[C@]43C)[C@H]12
OUT: ~100 µg/mL

* * *

experiment: Equilibrium solubility in selected solvents; conditions: water, thermodynamic from solid, Equilibrium solubility, Deionized Water; equilibration 3 days
Measured Metric: solubility thermodynamic at 3 days

IN: Query: solubility thermodynamic at 3 days; subject: C=C(C)[C@@H]1CC[C@]2(C(=O)O)CC[C@]3(C)[C@H](CC[C@@H]4[C@@]5(C)CC[C@H](OC(=O)CC(C)(C)C(=O)O)C(C)(C)[C@@H]5CC[C@]43C)[C@@H]12
OUT: > 18 mg/mL

* * *

test: Intravenous administration of DSB in rats (reference for bioavailability); type: in vivo; details: rat, plasma, dose 10.4 mg/kg, read-out: AUCINF after intravenous administration
Measured Metric: AUC(0-inf) (ng·h/mL)
Write down the numeric answer in ng·h/mL and omit the unit.

IN: Query: AUC(0-inf); subject: C=C(C)[C@H]1CC[C@]2(C(=O)O)CC[C@@]3(C)[C@H](CC[C@H]4[C@@]5(C)CC[C@H](OC(=O)CC(C)(C)C(=O)O)C(C)(C)[C@H]5CC[C@]43C)[C@H]12
OUT: 63300

* * *

experiment: physchem; conditions: saline or isotonic, thermodynamic from solid, Equilibrium solubility
Measured Metric: solubility thermodynamic at 3 days
Just the number plus its unit, please.

IN: Query: solubility thermodynamic at 3 days; subject: C=C(C)[C@H]1CC[C@]2(C(=O)O)CC[C@@]3(C)[C@H](CC[C@H]4[C@@]5(C)CC[C@H](OC(=O)CC(C)(C)C(=O)O)C(C)(C)[C@H]5CC[C@]43C)[C@H]12
OUT: 1500 µg/mL

* * *

test: Equilibrium solubility in selected solvents; settings: saline or isotonic, thermodynamic from solid, Equilibrium solubility, PSS + 0.1% DMSO; equilibration 3 days
Measured Metric: solubility thermodynamic at 3 days (µg/mL)
Write down the numeric answer in µg/mL and omit the unit.

IN: Query: solubility thermodynamic at 3 days; subject: C=C(C)[C@@H]1CC[C@]2(C(=O)O)CC[C@]3(C)[C@H](CC[C@@H]4[C@@]5(C)CC[C@H](OC(=O)CC(C)(C)C(=O)O)C(C)(C)[C@@H]5CC[C@]43C)[C@@H]12 [DSB-(NmG)2]
OUT: 108

* * *

experiment: Equilibrium solubility in selected solvents; conditions: organic solvent or mixture, thermodynamic from solid, Equilibrium solubility, Ethanol; equilibration 7 days; solid may have precipitated on transfer
Measured Metric: solubility thermodynamic at 7 days (mg/mL)
Write down the numeric answer in mg/mL and omit the unit.

IN: Query: solubility thermodynamic at 7 days; subject: C=C(C)[C@@H]1CC[C@]2(C(=O)O)CC[C@]3(C)[C@H](CC[C@@H]4[C@@]5(C)CC[C@H](OC(=O)CC(C)(C)C(=O)O)C(C)(C)[C@@H]5CC[C@]43C)[C@@H]12
OUT: 25
